Source of measurements: patent US20190062438A1

In this section, each of the binders is paired with its reported IC50 GM-CSF, TF-1 proliferation.
# assay_system: T1, human CD131 (human, UniProt P32927 17-897)
# T1 sequence: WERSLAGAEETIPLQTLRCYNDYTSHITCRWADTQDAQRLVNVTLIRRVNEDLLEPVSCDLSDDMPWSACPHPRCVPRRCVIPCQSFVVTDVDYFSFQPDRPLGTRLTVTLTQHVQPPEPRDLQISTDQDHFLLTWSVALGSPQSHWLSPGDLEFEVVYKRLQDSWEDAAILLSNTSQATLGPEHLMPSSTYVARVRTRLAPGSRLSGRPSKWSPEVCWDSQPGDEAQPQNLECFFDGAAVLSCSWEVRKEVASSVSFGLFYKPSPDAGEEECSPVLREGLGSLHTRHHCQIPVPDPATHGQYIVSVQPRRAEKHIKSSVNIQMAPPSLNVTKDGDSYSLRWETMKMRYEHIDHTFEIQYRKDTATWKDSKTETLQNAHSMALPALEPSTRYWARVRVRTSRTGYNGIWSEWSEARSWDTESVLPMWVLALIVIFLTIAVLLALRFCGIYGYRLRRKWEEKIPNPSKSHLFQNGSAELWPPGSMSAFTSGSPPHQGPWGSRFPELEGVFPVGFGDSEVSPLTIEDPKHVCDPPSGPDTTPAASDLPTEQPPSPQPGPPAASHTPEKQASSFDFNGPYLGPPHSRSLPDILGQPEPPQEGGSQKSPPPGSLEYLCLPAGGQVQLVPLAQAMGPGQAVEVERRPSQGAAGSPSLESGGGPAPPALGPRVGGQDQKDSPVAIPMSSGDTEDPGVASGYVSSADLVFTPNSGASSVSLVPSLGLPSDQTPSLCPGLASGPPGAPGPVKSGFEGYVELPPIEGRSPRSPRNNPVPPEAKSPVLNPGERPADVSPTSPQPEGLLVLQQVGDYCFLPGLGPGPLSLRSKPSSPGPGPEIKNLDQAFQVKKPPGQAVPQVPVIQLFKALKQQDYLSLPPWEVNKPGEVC
# protocol_description: cell-based or functional assay
Express the result in nM but write the number alone.

# binder, IC50 GM-CSF, TF-1 proliferation / nM
records = [
    ("9A2-VR24.124 (antibody, V domains shown) VH: EVQLLESGGGLVQPGGSLRLSCAASGFTFPWYRVHWVRQAPGKGLEWVSSIRSSGGFTYYTPSVRGRFTISRDNSKNTLYLQMNSLRAEDTAVYYCARFYDSFFDIWGQGTMVTVSS VL: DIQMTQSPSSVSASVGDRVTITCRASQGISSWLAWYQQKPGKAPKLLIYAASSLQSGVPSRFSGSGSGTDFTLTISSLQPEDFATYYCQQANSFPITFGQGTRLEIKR", 0.54),
    ("9A2-VR39.06 (antibody, V domains shown) VH: EVQLLESGGGLVQPGGSLRLSCAASGFTFQWYHYIWVRQAPGKGLEWVSSINGRGRVTYYADSVKGRFTISRDNSKNTLYLQMNSLRAEDTAVYYCARFYDSFFDIWGQGTMVTVSS VL: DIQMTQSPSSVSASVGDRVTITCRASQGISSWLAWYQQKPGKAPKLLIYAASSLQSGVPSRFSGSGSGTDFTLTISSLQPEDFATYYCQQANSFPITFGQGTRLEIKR", 1.85),
]

Below: the item to evaluate.
Fill in: IC50 GM-CSF, TF-1 proliferation of 9A2-VR39.122 (antibody, V domains shown) VH: EVQLLESGGGLVQPGGSLRLSCAASAGFFEYYHMLWVRQAPGKGLEWVSSINGRGRVTYYADSVKGRFTISRDNSKNTLYLQMNSLRAEDTAVYYCARFYDSFFDIWGQGTMVTVSS VL: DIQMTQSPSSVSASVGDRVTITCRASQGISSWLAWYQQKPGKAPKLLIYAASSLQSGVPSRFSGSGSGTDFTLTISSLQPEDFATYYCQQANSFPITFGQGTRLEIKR is ___
15
